# System: NOMO1
# Assay Name: AUC of viability dose-response curve (% viability x log10 dose units); higher = less sensitive
# Condition Parameters: RPMI 5 mM glucose + 10% dialyzed FBS; 48 h
Metric Name: AUC of viability dose-response curve
# answer = number (no unit)

CCN(CC)CCCC(C)Nc1nc(C)cc(Nc2ccc3nc(C)cc(N)c3c2)n1 (stereo not drawn)
468
Cc1cccc2c1CC[C@H](CN1CCC(c3c(Cl)cccc3Cl)CC1)C[C@@H]2O
413
N#CC[C@H](C1CCCC1)n1cc(-c2ncnc3[nH]ccc23)cn1
407
Nc1nc(N)c(N=O)c(OCC2CCCCC2)n1
380
C[N+]1(C)[C@@H]2CC(OC(=O)C(O)(c3cccs3)c3cccs3)C[C@H]1[C@@H]1O[C@@H]12 (stereo partly drawn)
471

Request: Field request: AUC of viability dose-response curve | item: CC(C)(O)C(=O)Nc1ccc([N+](=O)[O-])c(C(F)(F)F)c1
Response: 371

Request: Next up: Cc1ncc(-c2ccnc(Nc3ccc([S+](C)(=O)[O-])cc3)n2)n1C(C)C
Response: 389

Request: Next up: COC(=O)C/1=C(C)/N/C(=C(\C1C2=CC(=CC=C2)[N+]([O-])=O)C(=O)OCCCN3CCC(CC3)(C4=CC=CC=C4)C5=CC=CC=C5)C (stereo not drawn)
Response: 464

====

# Tested on: SEM cells
# Assay Name: cell viability relative to DMSO control; higher = less cytotoxic
# Condition Parameters: RPMI 5 mM glucose + 10% dialyzed FBS; 48 h; 46.1 µM
Metric Name: cell viability (%)
Your answer is read as %, so omit the unit and give the number.

Cc1nc(N)ncc1-c1nc(N2CCOCC2)c2sc(C(C)(C)O)cc2n1
5.41
NCCc1ccc(O)c(O)c1
11.5

Request: Field request: cell viability | item: CC(C)c1c(C(=O)Nc2ccccc2)c(-c2ccccc2)c(-c2ccc(F)cc2)n1CC[C@@H](O)C[C@@H](O)CC(=O)[O-]
Response: 60.9

Request: Next up: C[N]1N=CC=C1C/2=C(\C)N(C(=O)C(=C2)/C(=O)NCC3=NC=C(C=C3)[S+](C)([O-])=O)C4=CC=CC(=C4)C(F)(F)F
Response: 76

====

# Tested on: NOMO1
# Assay Name: cell viability relative to DMSO control; higher = less cytotoxic
# Condition Parameters: RPMI 5 mM glucose + 10% FBS; 48 h; 0.0211 µM
The following compounds are shown together with reported cell viability values.
Your answer is read as %, so omit the unit and give the number.

These solved cases illustrate the format of a correct answer.
COC(=O)C/1=C(C)/N/C(=C(\C1C2=CC(=CC=C2)[N+]([O-])=O)C(=O)OCCCN3CCC(CC3)(C4=CC=CC=C4)C5=CC=CC=C5)C (stereo unspecified)
92.4
CC(C)(Sc1ccc(CCN(CCCCC2CCCCC2)C(=O)NC2CCCCC2)cc1)C(=O)O
110
CC(C)(O)C(=O)Nc1ccc([N+](=O)[O-])c(C(F)(F)F)c1
122
CC(C)[N+]1(C)C2CCC1CC(OC(=O)C(CO)c1ccccc1)C2.O.[Br-] (stereo unspecified)
118
C=CC(=O)Nc1ccc2ncnc(Nc3ccc(OCc4cccc(F)c4)c(Cl)c3)c2c1
115
OC[C@H]1OC(OC2=CC3=C(C(=C2)O)C(=O)\C(=C/O3)C4=CC=C(O)C=C4)[C@H](O)[C@@H](O)[C@@H]1O (stereo partly specified)
77.8
Cn1cnc([N+](=O)[O-])c1Sc1ncnc2nc[nH]c12
96.6
C[C@H](Cc1ccc(O)c(O)c1)[C@@H](C)Cc1ccc(O)c(O)c1
122
CN1CCN(CCCN2c3ccccc3Sc3ccc(Cl)cc32)CC1.O=C(O)/C=C\C(=O)O.O=C(O)/C=C\C(=O)O
107
C[C@H]1Oc2cc(cnc2N)-c2c(nn(C)c2C#N)CN(C)C(=O)c2ccc(F)cc21
108

API: the following record is the query input.
Request: Field request: cell viability | item: CCN(CC)CCCC(C)Nc1nc(C)cc(Nc2ccc3nc(C)cc(N)c3c2)n1 (stereo unspecified)
Response: 113
